Data provenance is patent US6525001B1.

Give measured Plant response rating, Sugarbeets for each item. Keep answers brief.
# System: sugar beet (Beta vulgaris)
# test name: Test B pre-/postemergence
# Assay type: in vivo
# Parameters: key: 0 is no effect; 10 is complete control
# experimental conditions: Rate 250 g/ha, Preemergence
The answer should be written as a number, with no unit following it.

What measured Plant response rating, Sugarbeets goes with O=C(c1cccc(C(F)(F)F)c1)c1ccnc(-c2ccc(C(F)(F)F)cc2)n1 [Compound 77] ?
0

What measured Plant response rating, Sugarbeets goes with Cc1cnc(-n2ccc(C(F)(F)F)n2)nc1C(=O)c1cccc(C(F)(F)F)c1 [Compound 59] ?
10

What measured Plant response rating, Sugarbeets goes with Cc1cnc(-n2ccc(C(F)(F)F)n2)nc1Cc1cccc(C(F)(F)F)c1 [Example 2] ?
10

What measured Plant response rating, Sugarbeets goes with Cc1cnc(-n2ccc(C(F)(F)F)n2)nc1C(=O)c1cccc(OC(F)(F)F)c1 [Compound 66] ?
10

What measured Plant response rating, Sugarbeets goes with Cc1cnc(-c2ccc(C(F)(F)F)cc2)nc1C(Cl)c1cccc(C(F)(F)F)c1 (racemic) [Compound 21] ?
10

What measured Plant response rating, Sugarbeets goes with Cc1cnc(-c2ccc(C(F)(F)F)cc2)nc1Cc1cccc(C(F)(F)F)c1 [Example 1] ?
10

What measured Plant response rating, Sugarbeets goes with Cc1cnc(-n2ccc(C(F)(F)C(F)(F)F)n2)nc1C(=O)c1cccc(OC(F)(F)F)c1 [Compound 62] ?
10

What measured Plant response rating, Sugarbeets goes with Cc1cnc(-n2ccc(C(F)(F)F)n2)nc1Cn1ccc(C(F)(F)F)n1 [Compound 52] ?
10

What measured Plant response rating, Sugarbeets goes with Cc1cnc(-c2ccc(C(F)(F)F)cc2)nc1Cn1cnc(C(F)(F)F)c1 [Compound 10] ?
6

###

# System: wheat (Triticum aestivum)
# test name: Test B pre-/postemergence
# Format: in vivo
# experimental conditions: Rate 62 g/ha, Postemergence
Give measured Wheat plant response rating for each item. Keep answers brief.
The answer should be written as a number, with no unit following it.

What measured Wheat plant response rating goes with CCc1cnc(-c2ccc(C(F)(F)F)cc2)nc1Cc1cccc(OC(F)(F)F)c1 [Compound 41] ?
2

What measured Wheat plant response rating goes with Cc1cnc(-n2ccc(C(F)(F)C(F)(F)F)n2)nc1C(=O)c1cccc(C(F)(F)F)c1 [Compound 68] ?
2

What measured Wheat plant response rating goes with Cc1cnc(-c2ccc(C(F)(F)F)cc2)nc1C(=O)c1cccc(OC(F)(F)F)c1 [Compound 75] ?
2

What measured Wheat plant response rating goes with Cc1cnc(-c2ccc(F)c(Cl)c2)nc1Cc1cccc(C#N)c1 [Compound 40] ?
1

What measured Wheat plant response rating goes with Cc1cnc(-c2ccc(C(F)(F)F)cc2)nc1C(=O)c1cccc(C(F)(F)F)c1 [Compound 73] ?
4

What measured Wheat plant response rating goes with CCc1cnc(-n2ccc(C(F)(F)F)n2)nc1C(=O)c1cccc(C(F)(F)F)c1 [Compound 69] ?
3

What measured Wheat plant response rating goes with Cc1cnc(-c2ccc(C(F)(F)F)cc2)nc1Cn1ccc(C#N)n1 [Compound 53] ?
1

What measured Wheat plant response rating goes with Cc1cnc(-c2ccc(C#N)cc2)nc1Cc1cccc(C#N)c1 [Compound 36] ?
0

###

Give measured Plant response rating, Redroot pigweed for each item. Keep answers brief.
# Test system: pigweed (Amaranthus retroflexus)
# test name: Test B pre-/postemergence
# Format: in vivo
# experimental conditions: Rate 500 g/ha, Postemergence
The answer should be written as a number, with no unit following it.

What measured Plant response rating, Redroot pigweed goes with Cc1cnc(-c2ccc(C(F)(F)F)cc2)nc1Cn1cnc(C(F)(F)F)c1 [Compound 10] ?
9

What measured Plant response rating, Redroot pigweed goes with Cc1cnc(-n2cnc(C(F)(F)F)c2)nc1C(=O)c1cccc(OC(F)(F)F)c1 [Compound 63] ?
9

What measured Plant response rating, Redroot pigweed goes with Cc1cnc(-n2cnc(C(F)(F)F)n2)nc1C(=O)c1cccc(C(F)(F)F)c1 [Compound 67] ?
10

What measured Plant response rating, Redroot pigweed goes with Cc1cnc(-n2cnc(C(F)(F)F)c2)nc1C(=O)c1cccc(C(F)(F)F)c1 [Compound 61] ?
9

What measured Plant response rating, Redroot pigweed goes with Cc1cnc(-n2ccc(C(F)(F)C(F)(F)F)n2)nc1C(=O)c1cccc(C(F)(F)F)c1 [Compound 68] ?
10

What measured Plant response rating, Redroot pigweed goes with Cc1cnc(-c2ccc(OC(F)(F)F)cc2)nc1Cc1cccc(C(F)(F)F)c1 [Compound 16] ?
9

What measured Plant response rating, Redroot pigweed goes with Cc1cnc(-c2ccc(Cl)cc2)nc1Cn1ccc(C(F)(F)F)n1 [Compound 6] ?
9

What measured Plant response rating, Redroot pigweed goes with Cc1cnc(-c2ccc(C(F)(F)F)cc2)nc1Cn1ccc(C(F)(F)C(F)(F)F)n1 [Compound 14] ?
9

###

# Test system: pigweed (Amaranthus retroflexus)
# test name: Test B pre-/postemergence
# Assay type: in vivo
# experimental conditions: Rate 125 g/ha, Preemergence
Give measured Redroot pigweed plant response rating for each item. Keep answers brief.
The answer should be written as a number, with no unit following it.

What measured Redroot pigweed plant response rating goes with CCc1cnc(-n2cnc(C(F)(F)F)n2)nc1Cc1cccc(OC(F)(F)F)c1 [Compound 50] ?
9

What measured Redroot pigweed plant response rating goes with COc1cnc(-c2ccc(C(F)(F)F)cc2)nc1Cc1cccc(C(F)(F)F)c1 [Compound 23] ?
9

What measured Redroot pigweed plant response rating goes with Cc1cnc(-c2ccc(C(F)(F)F)cc2)nc1Cc1cccc(OC(F)(F)F)c1 [Compound 15] ?
10

What measured Redroot pigweed plant response rating goes with Cc1cnc(-c2ccc(C(F)(F)F)cc2)nc1Cn1ccc(C(F)(F)C(F)(F)F)n1 [Compound 14] ?
2

###

# System: velvetleaf (Abutilon theophrasti)
# test name: Test B pre-/postemergence
# Type: in vivo
# experimental conditions: Rate 125 g/ha, Postemergence
readout kind: Velvetleaf plant response rating

What measured Velvetleaf plant response rating goes with CCc1cnc(-n2ccc(C(F)(F)F)n2)nc1Cc1cccc(C(F)(F)F)c1 ?
9

What measured Velvetleaf plant response rating goes with CCc1cnc(-n2ccc(C(F)(F)F)n2)nc1C(=O)c1cccc(C(F)(F)F)c1 ?
8

What measured Velvetleaf plant response rating goes with CCc1cnc(-n2ccc(C(F)(F)F)n2)nc1Cc1cccc(OC(F)(F)F)c1 ?
7

What measured Velvetleaf plant response rating goes with CCc1cnc(-n2cnc(C(F)(F)F)c2)nc1C(=O)c1cccc(OC(F)(F)F)c1 ?
6

###

Give measured Plant response rating, Giant foxtail for each item. Keep answers brief.
# Test system: giant foxtail (Setaria faberii)
# test name: Test B pre-/postemergence
# Assay type: in vivo
# experimental conditions: Rate 125 g/ha, Postemergence
The answer should be written as a number, with no unit following it.

What measured Plant response rating, Giant foxtail goes with Cc1cnc(-c2ccc(Cl)cc2)nc1Cn1ccc(C(F)(F)F)n1 ?
4

What measured Plant response rating, Giant foxtail goes with CCc1cnc(-c2ccc(C(F)(F)F)cc2)nc1Cc1cccc(C(F)(F)F)c1 ?
6

What measured Plant response rating, Giant foxtail goes with COC(=O)C(c1cccc(C(F)(F)F)c1)c1nc(-c2ccc(C(F)(F)F)cc2)ncc1C (racemic) ?
1

###

# System: corn (Zea mays)
# test name: Test B pre-/postemergence
# Type: in vivo
# experimental conditions: Rate 500 g/ha, Postemergence
Give measured Plant response rating, Corn for each item. Keep answers brief.
The answer should be written as a number, with no unit following it.

What measured Plant response rating, Corn goes with Cc1cnc(-n2cnc(C(F)(F)F)n2)nc1C(=O)c1cccc(C(F)(F)F)c1 ?
7

What measured Plant response rating, Corn goes with Cc1cnc(-n2ccc(C(F)(F)F)n2)nc1C(=O)c1ccc(C(F)(F)F)cc1 ?
1

What measured Plant response rating, Corn goes with Cc1cnc(-n2ccc(C(F)(F)F)n2)nc1C(=O)c1cccc(C(F)(F)F)c1 ?
4

What measured Plant response rating, Corn goes with Cc1cnc(-c2ccccc2)nc1Cn1ccc(C(F)(F)F)n1 ?
2

What measured Plant response rating, Corn goes with Cc1cnc(-c2ccc(C(F)(F)F)cc2)nc1Cn1cnc(C(F)(F)F)n1 ?
3

What measured Plant response rating, Corn goes with Cc1cnc(-c2ccc(OC(F)(F)F)cc2)nc1Cc1cccc(C(F)(F)F)c1 ?
1

###

# Tested on: sugar beet (Beta vulgaris)
# test name: Test B pre-/postemergence
# Assay type: in vivo
# experimental conditions: Rate 500 g/ha, Postemergence
readout kind: Plant response rating, Sugarbeets

What measured Plant response rating, Sugarbeets goes with Cc1cnc(-n2ccc(C(F)(F)F)n2)nc1C(=O)c1ccc(C(F)(F)F)cc1 [Compound 65] ?
8

What measured Plant response rating, Sugarbeets goes with Cc1cnc(-c2ccc(C(F)(F)F)cc2)nc1Cc1cccc(C(F)(F)F)c1 [Example 1] ?
10

What measured Plant response rating, Sugarbeets goes with Cc1cnc(-n2cnc(C(F)(F)F)c2)nc1C(=O)c1cccc(OC(F)(F)F)c1 [Compound 63] ?
9

What measured Plant response rating, Sugarbeets goes with Cc1cnc(-c2ccc(C(F)(F)F)cc2)nc1Cn1ccc(C(F)(F)F)n1 [compound 9] ?
9

What measured Plant response rating, Sugarbeets goes with Cc1cnc(-c2ccc(C(F)(F)F)cc2)nc1C(=O)c1cccc(C(F)(F)F)c1 [Compound 73] ?
9

What measured Plant response rating, Sugarbeets goes with Cc1cnc(-c2ccc(C(F)(F)F)cc2)nc1Cn1cc(Br)cn1 [Compound 54] ?
9

What measured Plant response rating, Sugarbeets goes with Cc1cnc(-n2ccc(C(F)(F)C(F)(F)F)n2)nc1C(=O)c1cccc(C(F)(F)F)c1 [Compound 68] ?
10
